In this section, each of the sequences is paired with its reported Binding of a rabbit serum to linear peptides.
# Tested on: rabbit serum obtained by immunizing a rabbit with the SARS-CoV strain Frankfurt 1
# Format: binding
# Design: unit not given here
Keep it simple and answer with nothing but the number.

polymer_sequence=SLYMAISPKFTTSLS test_result=0.2
polymer_sequence=GTQVLKTMSLYMAIS test_result=0.2
polymer_sequence=SLHKLLQTLVLKMLH test_result=0.3
polymer_sequence=FMRFFTLGSITAQPV test_result=0.3
polymer_sequence=MCKYTQSTALQELLI test_result=0.2
polymer_sequence=TIYSHLLLVAAGMEA test_result=0.1

Would you kindly look at the next entry?
Can you share its Binding of a rabbit serum to linear peptides? I mean this sequence: SKNPLLYDANYFVCW 0.1
